Data provenance: patent US20130045983A1

- System: MAXF 1384
- assay.text: Clonogenic assay, MAXF 1384
- Assay type: cell-based
- condition.notes: Homo sapiens, Breast, Adenocarcinoma, soft agar, read-out: IC50 (colony formation)
readout.label: IC50 (nM)
Answer with a number only, understood to be in nM.

### Prompt Which measured IC50 value corresponds to COc1cccc(-c2ccccc2[C@H]2Cc3nc(N)nc(C)c3C(=O)N2)n1 ?
### Response 14

* * *

- System: LXFL 1647
- assay.text: Clonogenic assay, LXFL 1647
- Format: cell-based
- condition.notes: Homo sapiens, Lung, non-small cell, Large cell lung carcinoma, soft agar, read-out: IC50 (colony formation)
readout.label: IC50 (nM)
Answer with a number only, understood to be in nM.

### Prompt Which measured IC50 value corresponds to COc1cccc(-c2ccccc2[C@H]2Cc3nc(N)nc(C)c3C(=O)N2)n1 ?
### Response 203
